Target: DRB1*1101 (Homo sapiens, UniProt P01903+P01911, A100R/A169T/A87E/I96F/K41T/L162R/M171V/P40S/Q125H/Q178H/Q39Y/Q99D/R42S/S66Y/T262R/V115G/W38E)
Sequence (P01903 26-254 limits assumed, other chains not shown): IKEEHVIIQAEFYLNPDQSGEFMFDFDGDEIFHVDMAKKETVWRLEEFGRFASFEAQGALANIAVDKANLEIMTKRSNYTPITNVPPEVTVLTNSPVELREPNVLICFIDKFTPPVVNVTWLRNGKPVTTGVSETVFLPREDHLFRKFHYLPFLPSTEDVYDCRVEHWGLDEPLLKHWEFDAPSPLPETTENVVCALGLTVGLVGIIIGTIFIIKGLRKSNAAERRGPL
Assay: biochemical
Settings: Binding affinity DRB1 *1101
No end group written: not given here.
quantity measured: IC50 (µM)
Hi! Could you send only the number? It should be in µM, unit omitted.

The sequence listed as KTLIKPATLYAHIQC [Peptide 89.0083] has a reported IC50 of 0.035

The sequence listed as KHIRLLECVLMYKARE [Peptide 1601.44] has a reported IC50 of 0.613

The sequence listed as EYILDLHPEPTDLFC [Peptide 1543.51] has a reported IC50 of 19.5

The sequence listed as MAIFGVNPTVAEGFK [Peptide 89.0081] has a reported IC50 of 0.041

The sequence listed as DSEIAYKYAQLADSD [Peptide 89.0051] has a reported IC50 of 3.38

The sequence listed as QMFLGTVKIPPTVQI [Peptide 89.0188] has a reported IC50 of 0.474

The sequence listed as HKAIELQMALKGLAQ [Peptide 90.0004] has a reported IC50 of 0.01

The sequence listed as NGWFYVEAVVEKKTG [Peptide 90.0029] has a reported IC50 of 2.74

The sequence listed as GQVIVCPTSISSNQI [Peptide 89.0185] has a reported IC50 of 6.53

The sequence listed as QQTVCREGVKRRLIL [Peptide 90.0129] has a reported IC50 of 1.02

The sequence listed as RETIEKLLSKLLCVS [Peptide 89.0006] has a reported IC50 of 0.715

The sequence listed as KNCILIHGAPNTGKS [Peptide 89.0055] has a reported IC50 of 19.9

---

Target: A*3002 (Homo sapiens, UniProt P04439, D101N/D140H/D185E/E176R/F33S/G80R/H175R/K168Q/Q94H/R138E/R41S/V100E)
Assay: biochemical
Format: binding
No end group written: not given here.
The following sequences are listed with their measured pIC50 values.
pIC50 is a log-scale quantity: -log10 of the concentration expressed in molar.

Please review the following examples before continuing.
entry_sequence="GYADQLIHLY [Peptide 9018.0025]" value_measured=8.92
entry_sequence="MRDNWRSELY [Peptide 9015.0155]" value_measured=7.14
entry_sequence="KYCWNLLQY [Peptide 1595.08]" value_measured=7.33
entry_sequence="VTDDSEIAY [Peptide 1593.13]" value_measured=5.00
entry_sequence="GYFPDWQNY [Peptide 1605.15]" value_measured=7.32
entry_sequence="ETKKGKAGY [Peptide 9015.0024]" value_measured=5.68
entry_sequence="MSDSQWIKY [Peptide 1593.05]" value_measured=6.36
entry_sequence="LTDDSDIAYY [Peptide 1580.12]" value_measured=6.53
entry_sequence="VSRDAKGWFY [Peptide 9018.0014]" value_measured=8.47
entry_sequence="GTEELRSLY [Peptide 9015.0010]" value_measured=7.29

The sequence listed as SIEWRLRRY [Peptide 9015.0035] has a reported pIC50 of 6.58

The sequence listed as IVNRVRQGY [Peptide 1595.07] has a reported pIC50 of 8.20

The sequence listed as RTKNPEIVIY [Peptide 9015.0164] has a reported pIC50 of 7.92

The sequence listed as FGEMVQWAY [Peptide 1580.13] has a reported pIC50 of 6.60

---

Target: DRB4*0101 (Homo sapiens, UniProt P01903+P13762, G164S)
Test: biochemical
Type: binding
pIC50: −log10 of the molar value. No end group written: not given here.
# binarize pIC50: threshold 7 inclusive, high side YES, low side NO

entry_sequence="ETCMVIEPPKLRSQT [Peptide 90.0083]" assigned_category=YES
entry_sequence="EVQIALESLSTTIYN [Peptide 90.0231]" assigned_category=YES
entry_sequence="LKVLIKQHSIYTHLQ [Peptide 89.0142]" assigned_category=NO

Does LIRMECALLYTAKQM [Peptide 89.0179] have a reported pIC50 of at least 7?
NO

Does TLAVSKNKALQAIEL [Peptide 89.0150] have a reported pIC50 of at least 7?
YES

Does DSEIAYKYAQLADSD [Peptide 89.0051] have a reported pIC50 of at least 7?
NO

Does RLNLDNDEDKENNGD [Peptide 90.0144] have a reported pIC50 of at least 7?
YES

Does LIRLENAILFTAREH [Peptide 90.0002] have a reported pIC50 of at least 7?
NO

Does DWVMAIFGVNPTVAE [Peptide 89.0079] have a reported pIC50 of at least 7?
YES

Does NGWFYVEAVIDRQTG [Peptide 90.0062] have a reported pIC50 of at least 7?
YES

Does PDGQAEQATSNYYIV [Peptide 1543.43] have a reported pIC50 of at least 7?
NO

Does LKGDANILKCLRYRL [Peptide 1601.26] have a reported pIC50 of at least 7?
NO

Does EIYIIEEDTCTMVTG [Peptide 90.0203] have a reported pIC50 of at least 7?
NO

Does GQVIVCPTSISSNQI [Peptide 89.0185] have a reported pIC50 of at least 7?
NO

Does SRVIVCPTSIPSDQI [Peptide 90.0027] have a reported pIC50 of at least 7?
NO

Does HQVVPSLVASKTKAF [Peptide 90.0023] have a reported pIC50 of at least 7?
NO

Does QRFHNIRGRWTGRCM [Peptide 1543.27] have a reported pIC50 of at least 7?
NO

Does DSVDSVNCGVISAAA [Peptide 1601.24] have a reported pIC50 of at least 7?
NO

Does EDLRTLQQLFLSTLS [Peptide 1543.21] have a reported pIC50 of at least 7?
YES

Does WQLIRLENAILFTAR [Peptide 90.0211] have a reported pIC50 of at least 7?
YES

---

Target: DRB1*1101 (Homo sapiens, UniProt P01903+P01911, A100R/A169T/A87E/I96F/K41T/L162R/M171V/P40S/Q125H/Q178H/Q39Y/Q99D/R42S/S66Y/T262R/V115G/W38E)
Experiment: biochemical
Settings: Binding affinity DRB1 *1101
No end group written: not given here.
For each record, check the reported IC50: if it is below 2 µM write Criterion met, else write Criterion not met.

entry_sequence="IYIIEEDTCTMVTGK [Peptide 90.0204]" assigned_category="Criterion not met"
entry_sequence="TRPRTLHELCEVLEE [Peptide 1543.42]" assigned_category="Criterion not met"
entry_sequence="TLAVSKNKALQAIEL [Peptide 89.0150]" assigned_category="Criterion not met"

Strictly below 2 µM in IC50? NGWFYVEAVIDRQTG [Peptide 90.0062]
Criterion not met

Strictly below 2 µM in IC50? ETCMVIEPPKLRSQT [Peptide 90.0083]
Criterion not met

Strictly below 2 µM in IC50? CMLIQPPKLRSTAAA [Peptide 89.0047]
Criterion met

Strictly below 2 µM in IC50? LETIYNSQYSNEKWT [Peptide 1601.03]
Criterion not met

Strictly below 2 µM in IC50? FAGIVTKLPTANNTT [Peptide 89.0175]
Criterion not met

Strictly below 2 µM in IC50? ETCMLIEPPKLRSSV [Peptide 89.0084]
Criterion met

Strictly below 2 µM in IC50? LSQVKIPKTITVSTG [Peptide 89.0158]
Criterion not met

Strictly below 2 µM in IC50? NTEVETQQMVQVEEQ [Peptide 89.0039]
Criterion not met

Strictly below 2 µM in IC50? DWVMAIFGVNPTVAE [Peptide 89.0079]
Criterion met

Strictly below 2 µM in IC50? GRAVCGGVLVHPQWV [Peptide 68.0062]
Criterion not met

Strictly below 2 µM in IC50? LIRMECAIMYTARQM [Peptide 90.0022]
Criterion met

Strictly below 2 µM in IC50? TTIYNNEEWTLRDTC [Peptide 90.0232]
Criterion not met

Strictly below 2 µM in IC50? NTTPIIHLKGDKNSL [Peptide 1601.37]
Criterion not met

Strictly below 2 µM in IC50? KSLFGMSLMKFLQGS [Peptide 89.0020]
Criterion met

Strictly below 2 µM in IC50? VSKLMSQLLNIPETH [Peptide 89.0101]
Criterion not met

Strictly below 2 µM in IC50? RREVYDFAFRDLCIV [Peptide 1543.25]
Criterion not met

Strictly below 2 µM in IC50? NTEVETQQMVQQVES [Peptide 89.0059]
Criterion not met

Strictly below 2 µM in IC50? NSIFDFGEMVQWAYD [Peptide 89.0106]
Criterion not met

Strictly below 2 µM in IC50? LKVLIKQHSLYTHLQ [Peptide 89.0061]
Criterion met
